target: vanadium chloroperoxidase (CiVCPO) (Curvularia inaequalis, UniProt P49053)
Sequence (P49053 whole entry): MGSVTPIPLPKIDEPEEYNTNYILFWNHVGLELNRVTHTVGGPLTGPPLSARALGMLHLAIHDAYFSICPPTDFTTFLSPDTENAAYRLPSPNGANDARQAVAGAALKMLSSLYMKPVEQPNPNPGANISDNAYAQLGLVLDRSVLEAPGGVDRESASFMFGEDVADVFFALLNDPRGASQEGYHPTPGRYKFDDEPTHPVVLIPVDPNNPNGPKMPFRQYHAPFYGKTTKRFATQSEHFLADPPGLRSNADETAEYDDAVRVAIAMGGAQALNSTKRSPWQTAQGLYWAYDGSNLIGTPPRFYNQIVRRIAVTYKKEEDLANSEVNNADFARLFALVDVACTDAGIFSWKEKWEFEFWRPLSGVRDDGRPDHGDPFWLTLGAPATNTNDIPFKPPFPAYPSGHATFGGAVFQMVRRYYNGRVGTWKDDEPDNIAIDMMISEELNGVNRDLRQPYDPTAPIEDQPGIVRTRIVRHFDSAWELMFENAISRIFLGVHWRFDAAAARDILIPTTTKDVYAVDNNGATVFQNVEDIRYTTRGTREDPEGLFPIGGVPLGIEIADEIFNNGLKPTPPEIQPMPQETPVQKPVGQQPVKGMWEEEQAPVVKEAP
PROPERTY_MEASURED: Kd (nM)

MOLECULE	TEST_SYSTEM	PROPERTY_MEASURED	READOUT_VALUE
Cn1c(-c2ccccc2)cc2ccccc21 [methylphenylindole]	vanadium chloroperoxidase (CiVCPO) (Curvularia inaequalis, UniProt P49053)	Kd	660
